These entries and their values trace back to paper PMC12416549.

- Measured target: T1, TNFR1 (Homo sapiens, UniProt P19438)
- T1 chain: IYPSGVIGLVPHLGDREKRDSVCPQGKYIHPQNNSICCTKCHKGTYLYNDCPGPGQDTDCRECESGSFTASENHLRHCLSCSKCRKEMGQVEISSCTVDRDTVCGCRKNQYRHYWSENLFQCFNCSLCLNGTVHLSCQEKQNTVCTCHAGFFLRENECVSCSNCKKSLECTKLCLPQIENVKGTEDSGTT
- Test summary: yeast display SC50
Endpoint: apparent Kd (screen) (nM)
One number for each entry, in nM.

Please give apparent Kd (screen) for each item listed below.
1. A15Y (designed binder) MTLQELLREEALRRYEAEAFRYALELLAEKFPEQKEYLLDLAEEIESQIRSLSGVDVEDVRKFLDKEWAWVKELLAEHPAELAEVEAARAARLAELRAEVEAKVAA
2. E5C (designed binder) MTLQCLLREEALRRAEAEAFRYALELLAEKFPEQKEYLLDLAEEIESQIRSLSGVDVEDVRKFLDKEWAWVKELLAEHPAELAEVEAARAARLAELRAEVEAKVAA
3. E36W (designed binder) MTLQELLREEALRRAEAEAFRYALELLAEKFPEQKWYLLDLAEEIESQIRSLSGVDVEDVRKFLDKEWAWVKELLAEHPAELAEVEAARAARLAELRAEVEAKVAA
4. E86S (designed binder) MTLQELLREEALRRAEAEAFRYALELLAEKFPEQKEYLLDLAEEIESQIRSLSGVDVEDVRKFLDKEWAWVKELLAEHPAELAEVSAARAARLAELRAEVEAKVAA

A:
0.539
0.79
0.539
0.869
